// pIC50 lookup, one value per entry
- System: SH-SY5Y cells
- assay.comment: 72-h MTT viability assay, SH-SY5Y
- Type: cell-based, human
- details: Homo sapiens, SH-SY5Y, 72 h incubation, mean of 3 experiments +/-SD, no effect = viability (SF) similar to control, about 100%
Scale: negative log10 of molar concentration, which is what pIC50 denotes.

Sample answers from the record:
structure.smiles	pIC50
c1ccc2c3c(cnc2c1)Sc1cnc2ccccc2c1N3CCN1CCCC1	5.19
CC(=O)NCCN1c2c(cnc3ccccc23)Sc2cnc3ccccc3c21	4.61
CC(=O)NCCCN1c2c(cnc3ccccc23)Sc2cnc3ccccc3c21	4.67
c1ccc2c3c(cnc2c1)Sc1cnc2ccccc2c1N3CCN1CCNCC1	5.31

Task item: Return reported pIC50 for target or system SH-SY5Y cells, item `CS(=O)(=O)NCCCCN1c2c(cnc3ccccc23)Sc2cnc3ccccc3c21` .
Reply: 4.67
